Data provenance: paper PMC11488661

molecular target: eOD-GT8 (monomeric ligand) (Human immunodeficiency virus 1, …)
pKd: −log10 of the molar value.
The binders listed here are annotated with their pKd.
Recorded Metric: pKd

INSERT INTO assay_data (binder, value_measured) VALUES
  ('g28v2-D58-6_CLK19 (antibody, V domains shown) VH: QVQLVQSGAEVKKPGASVKVSCKASGYTFTGYYIHWFRQAPGQGLEWMGWMNPSYGGTNYAQKFQGRVTMTRDTSINTAYMELSRLRSDDTAVYYCTPVLAAYRWRFDYWGQGTLVTVSS VL: DIQMTQSPSSLSASVGDRVTITCQANQAIRNYLNWYQQKPGKAPKLLIYDVSNLETGVPSRFSGSGSGTDFTFTISSLQSEDIATYYCQQYETFGPGTKVDIK', 8.97),
  ('GT8-D36-17_CLK09 (antibody, V domains shown) VH: QVQLVQSGAEVKKPGASVKVSCKASGYTFSGYYIHWVRQAPGQGLKWMGWINPNSGGTNYAQKFQGRVTMTRDTSISTAYLELSRLRSDDTAVYYCARVEGLWTFDIWGQGTMVTVSS VL: DIQMTQSPSSLSASIGDRVTITCQASQDISNYLNWYQQKPGKAPKLLIYDASNLETGVPSRFSGSGSGTDFTFTISSLQSEDIATYYCQQYEFFGGGTKVEIK', 8.39);
